# drug sensitivity score per entry
# Tested on: HS-PSS
# Assay text: drug sensitivity score (DSS, CellTiter-Glo viability, 72 h) (DSS (dimensionless)); higher = more sensitive; extreme values may be limits of the assay
Readout name: drug sensitivity score

>>> numeric_result("C[C@]12CC[C@@H]3c4ccc(O)cc4C[C@@H](CCCCCCCCC[S+]([O-])CCCC(F)(F)C(F)(F)F)[C@H]3[C@@H]1CC[C@@H]2O (some centres not stated) [Fulvestrant] (max concentration tested 1000 nM)")
0
>>> numeric_result("CC(C)NC[C@@H](C(=O)N1CCN(c2ncnc3c2[C@H](C)C[C@H]3O)CC1)c1ccc(Cl)cc1 [Ipatasertib] (max concentration tested 10000 nM)")
3.83
>>> numeric_result("C=CC(=O)N1CCC(Oc2cc3c(Nc4ccc(Cl)c(Cl)c4F)ncnc3cc2OC)CC1 [Poziotinib] (max concentration tested 1000 nM)")
0
>>> numeric_result("Cc1nc(=O)c2cc(CN(C)c3ccc(C(=O)N[C@@H](CCC(=O)O)C(=O)O)s3)ccc2[nH]1 [Raltitrexed] (max concentration tested 1000 nM)")
3.16
>>> numeric_result("CC1=C(/C=C/C(C)=C/C=C/C(C)=C/C(=O)O)C(C)(C)CCC1 [Tretinoin] (max concentration tested 10000 nM)")
0
>>> numeric_result("O=C(/C=C\\n1cnc(-c2cc(C(F)(F)F)cc(C(F)(F)F)c2)n1)NNc1cnccn1 [Selinexor] (max concentration tested 10000 nM)")
11.3
>>> numeric_result("O=C(O)CCCCC(CCSCc1ccccc1)SCc1ccccc1 (configuration not stated) [CPI-613] (max concentration tested 10000 nM)")
0.36
>>> numeric_result("FC(F)(F)c1ccc(CNc2ccc(Cc3c[nH]c4ncc(Cl)cc34)cn2)cn1 [Pexidartinib] (max concentration tested 10000 nM)")
1.79
>>> numeric_result("COc1cc([C@@H]2c3cc4c(cc3[C@@H](O[C@@H]3O[C@@H]5CO[C@@H](c6cccs6)O[C@H]5[C@H](O)[C@H]3O)[C@H]3COC(=O)[C@H]23)OCO4)cc(OC)c1O [Teniposide] (max concentration tested 10000 nM)")
6.82
>>> numeric_result("O=c1sn(-c2cccc3ccccc23)c(=O)n1Cc1ccccc1 [Tideglusib] (max concentration tested 3000 nM)")
0
>>> numeric_result("CCNC(=O)C[C@@H]1N=C(c2ccc(Cl)cc2)c2cc(OC)ccc2-n2c(C)nnc21 (max concentration tested 10000 nM)")
7.28
>>> numeric_result("CCN(c1cc(-c2ccc(CN3CCOCC3)cc2)cc(C(=O)NCc2c(C)cc(C)[nH]c2=O)c1C)C1CCOCC1 [Tazemetostat] (max concentration tested 10000 nM)")
0.52
